target: GPR73 (prokineticin 1 receptor) (Homo sapiens, UniProt Q8TCW9); construct: expressed in transfected cells; host or cells: HEK 293; test: PK1 functional assay: Ca2+ mobilization screening for PK1 antagonists on the FLIPR; format: cell-based; conditions: HEK 293 GPR73 cells; PK1 ligand preparation at its EC50; multiple values = multiple testing; read-out: Ca^2+ Mobilization IC50
Sequence (Q8TCW9 whole entry, species assumed): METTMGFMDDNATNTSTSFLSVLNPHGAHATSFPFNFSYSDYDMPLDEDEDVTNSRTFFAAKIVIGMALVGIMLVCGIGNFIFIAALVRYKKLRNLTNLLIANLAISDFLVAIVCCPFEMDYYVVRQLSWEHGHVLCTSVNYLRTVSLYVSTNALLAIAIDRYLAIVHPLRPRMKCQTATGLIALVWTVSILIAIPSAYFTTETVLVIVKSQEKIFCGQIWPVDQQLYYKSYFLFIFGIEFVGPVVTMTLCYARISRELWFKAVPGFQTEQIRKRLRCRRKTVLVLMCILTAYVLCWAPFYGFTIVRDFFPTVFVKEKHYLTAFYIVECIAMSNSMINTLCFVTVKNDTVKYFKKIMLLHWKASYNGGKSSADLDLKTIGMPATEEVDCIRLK
EXPERIMENTAL ENDPOINT: IC50 (µM)
Enter your answer as a number in µM; do not include the unit.

Recall the recorded IC50 for `COc1ccc(Cn2c(=O)nc(NCc3cnc(C)cc3C)n(Cc3ccc(Cl)cc3)c2=O)cc1` with GPR73 (prokineticin 1 receptor) (Homo sapiens, UniProt Q8TCW9) and state it.
0.218

Kindly state the measured IC50 obtained for `COc1ccc(Cn2c(=O)nc(NCc3cnc(C)cc3C)n(Cc3ccc(F)cc3)c2=O)cc1` with GPR73 (prokineticin 1 receptor) (Homo sapiens, UniProt Q8TCW9).
0.391

Observed IC50 on GPR73 (prokineticin 1 receptor) (Homo sapiens, UniProt Q8TCW9) for `CCCNc1cccc(CNc2nc(=O)n(Cc3ccc(OC)cc3)c(=O)n2Cc2ccc(OC)cc2)n1` , please.
0.11

Reported IC50 for GPR73 (prokineticin 1 receptor) (Homo sapiens, UniProt Q8TCW9), given COCCNc1ncccc1CNc1nc(=O)n(CC2COc3ccccc3O2)c(=O)n1Cc1ccc(OC)cc1 (centres unmarked) ?
5.93

Short answer please: IC50, GPR73 (prokineticin 1 receptor) (Homo sapiens, UniProt Q8TCW9), entry `Cc1ccc(Cn2c(=O)nc(NCc3cnc(C)cc3C)n(Cc3ccc(OC(F)F)cc3)c2=O)cc1`
4.78

====

biological target: GPR73 (prokineticin 1 receptor) (Homo sapiens, UniProt Q8TCW9); construct: expressed in transfected cells; host or cells: HEK 293; assay: PK1 functional assay: Ca2+ mobilization screening for PK1 antagonists on the FLIPR; format: cell-based; details: HEK293, 10 μM compound; HEK 293 GPR73 cells; multiple values = multiple testing; read-out: Ca^2+ Mobilization % Inh @ 10 μM
Assign inhibition at 10 µM to each entry below.
# number then unit; no other words

# lookup: inhibition at 10 µM of `COc1ccc(Cn2c(NCc3ccc(N)cn3)nc(=O)n(Cc3ccc(Cl)cc3)c2=O)cc1`
94%

Which inhibition at 10 µM value belongs to `Cc1cc(C)c(CNc2nc(=O)n(Cc3ccc4occc4c3)c(=O)n2Cc2ccc(OC(F)F)cc2)cn1` ?
46%

# get_value(readout='inhibition at 10 µM', item= `COc1ccc(Cn2c(NCc3cnc(C)cc3C)nc(=O)n(Cc3ccc(C(F)(F)F)cc3)c2=O)cc1` )
48%

Which inhibition at 10 µM value belongs to `COc1ccc(Cn2c(NCc3cccnc3N)nc(=O)n(Cc3ccc4sccc4c3)c2=O)cc1` ?
90%

====

Provide the recorded inhibition at 10 µM for the entries that follow.
Biological target: GPR73 (prokineticin 1 receptor) (Homo sapiens, UniProt Q8TCW9)
Construct: expressed in transfected cells; host or cells: HEK 293
Assay: PK1 functional assay: Ca2+ mobilization screening for PK1 antagonists on the FLIPR
Format: cell-based
Settings: HEK293, 10 μM compound; HEK 293 GPR73 cells; multiple values = multiple testing; read-out: Ca^2+ Mobilization % Inh @ 10 μM
Protocol: At a time of 24 h prior to running the assay, in cell culture media (DMEM containing high Glucose and L-glutamine, 10% FBS, 1% Pen/Streptomycin, 1% Sodium Pyruvate, 20 mM HEPES, Zeocin 200 mg/L), 100 μL of 1.3*10^6/ml HEK 293 GPR73 (prokineticin 1 receptor) expressing cells were plated in a 96 well poly-d-lysine coated plate (Costar), and incubated at 37 C and 5% CO2. […] Baseline is described as the amount of relative fluorescence read when buffer alone is added to cells. […]
Just the number in %, nothing appended.

Given Cc1cc(C)c(CNc2nc(=O)n(Cc3ccc4c(c3)nnn4C)c(=O)n2Cc2ccc(OC(F)F)cc2)c(N)n1 [Cpd 221] , state its recorded inhibition at 10 µM.
98

Need inhibition at 10 µM, item Cc1cc(C)c(CNc2nc(=O)n(Cc3ccc4c(c3)nnn4C)c(=O)n2Cc2ccc(OC(F)F)cc2)cn1 [Cpd 192]
80

Which inhibition at 10 µM value is on record for Cc1cc(C)[n+]([O-])c(N)c1CNc1nc(=O)n(Cc2ccc3c(c2)CCO3)c(=O)n1Cc1ccc(OC(F)F)cc1 [Cpd 233] ?
96

So what does the record say about inhibition at 10 µM for Cc1cc(C)c(CNc2nc(=O)n(Cc3ccc4c(c3)CCO4)c(=O)n2Cc2ccc(OC(F)F)cc2)cn1 [Cpd 179] ?
61
